Tested on: Human PDGF-BB (human, UniProt P01127 82-190)
Sequence (P01127 82-190 limits assumed): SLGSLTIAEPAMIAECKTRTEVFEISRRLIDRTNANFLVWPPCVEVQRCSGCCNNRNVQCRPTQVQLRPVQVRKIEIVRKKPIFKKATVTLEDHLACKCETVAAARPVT
Procedure text: cell-based or functional assay
Measure name: hPDGF-BB NIH-3T3 Proliferation IC50 (nM)

Binder | Measured number
CL-33820-IgG (antibody, V domains shown) VH: EVTLRESGPALVKPTQTLTLTCTFSGFSLSTYGMGVGWIRQPPGKALEWLANIWWDDDKYYNPSLKNRLTISKDTSKNQVVLTMTNMDPVDTATYYCARIESSFTSYSFDYWGQGTMVTVSS VL: EIVLTQSPGTLSLSPGERATLSCKRSSGSIYDTYVSWYQQKPGQAPRLVIYSDDQRPSGIPDRFSGSGSGTDFTLTISRLEPEDFAVYYCQSYDLTIDITFGGGTKVEIK | 0.017
CL-33812-IgG (antibody, V domains shown) VH: EVTLRESGPALVKPTQTLTLTCTFSGFSLSTYGMGVGWIRQPPGKALEWLANIWWDDDKYYNPSLKNRLTISKDTSKNQVVLTMTNMDPVDTATYYCARIESNPWKYSFDYWGQGTMVTVSS VL: EIVLTQSPGTLSLSPGERATLSCERSSGDIWQSYVSWYQQKPGQAPRLVIYSDDQRASGIPDRFSGSGSGTDFTLTISRLEPEDFAVYYCQSYGINIDVVFGGGTKVEIK | 0.033
CL-33845-IgG (antibody, V domains shown) VH: EVTLRESGPALVKPTQTLTLTCTFSGFSLSTYGMGVGWIRQPPGKALEWLANIWWDDDKYYNPSLKNRLTISKDTSKNQVVLTMTNMDPVDTATYYCARIVSDWTTYSFDYWGQGTMVTVSS VL: EIVLTQSPGTLSLSPGERATLSCRASSGSIWYSFVSWYQQKPGQAPRLLIYADDQRASGIPDRFSGSGSGTDFTLTISRLEPEDFAVYYCQSYGINIDVVFGGGTKVEIK | 0.171
CL-33737-IgG (antibody, V domains shown) VH: EVTLRESGPALVKPTQTLTLTCTFSGFSLSTYGMGVGWIRKPPGKALEWLANIWWDDDKYYNPSLKNRLTISKDTSKNQVVLTMTNMDPVDTATYYCARIESSGPKYSFDYWGQGTMVTVSS VL: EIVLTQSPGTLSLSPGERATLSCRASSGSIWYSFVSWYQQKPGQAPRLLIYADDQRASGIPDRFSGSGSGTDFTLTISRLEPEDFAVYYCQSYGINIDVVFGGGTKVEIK | 0.03
CL-33767-IgG (antibody, V domains shown) VH: EVTLRESGPALVKPTQTLTLTCTFSGFSLSTYGMGVGWIRQPPGKALEWLANIWWDDDKYYNPSLKNRLTISKDTSKNQVVLTMTNMDPVDTATYYCARIESIGPKYSFDYWGQGTMVTVSS VL: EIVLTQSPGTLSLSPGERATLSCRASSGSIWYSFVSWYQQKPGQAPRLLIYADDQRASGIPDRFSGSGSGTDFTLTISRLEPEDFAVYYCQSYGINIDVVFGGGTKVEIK | 0.09
